// data source = a collection of fitness landscapes (doi:10.1126/science.1257360)

B1: PhoQ; a variant is named by its letters at X, in order, P23837 (parent)
chain: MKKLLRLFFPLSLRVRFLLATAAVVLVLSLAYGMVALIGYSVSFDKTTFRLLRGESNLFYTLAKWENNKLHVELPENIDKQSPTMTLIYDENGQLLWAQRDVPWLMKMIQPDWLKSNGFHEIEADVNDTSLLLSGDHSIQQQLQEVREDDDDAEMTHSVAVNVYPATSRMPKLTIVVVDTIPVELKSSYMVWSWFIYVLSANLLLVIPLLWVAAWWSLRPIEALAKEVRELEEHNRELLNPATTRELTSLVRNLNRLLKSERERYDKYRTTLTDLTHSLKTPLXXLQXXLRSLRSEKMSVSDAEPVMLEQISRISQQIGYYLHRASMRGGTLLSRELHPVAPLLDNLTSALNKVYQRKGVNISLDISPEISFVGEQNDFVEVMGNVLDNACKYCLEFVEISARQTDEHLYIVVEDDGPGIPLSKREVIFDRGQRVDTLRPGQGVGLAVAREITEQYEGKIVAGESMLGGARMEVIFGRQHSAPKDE

variants of: B1; test: enrichment ratio after two sorts for PhoP signalling (ratio (wild type AVST 3.29)); higher = more functional; details: with PhoP (E. coli)
The full ranking holds about 140,000 sequences; the median of “enrichment ratio after two sorts for PhoP signalling” is about 0, and the highest 2% start at about 11. The sample as a whole holds a higher share of the highest values than the screen did.
Endpoint Label: enrichment ratio

Guide cases for enrichment ratio, answers given:
KASM    ≤ 0.25
TQWM    ≤ 0.25
AGDM    ≤ 0.25
QNQF    ≤ 0.25
SIMV    13.6
IWCG    ≤ 0.25
TASM    13.4
ALTN    7.81
NASM    ≤ 0.25
AGIM    11.8

// enrichment ratio lookup, variant = MECQ , result: ≤ 0.25

Data point: TQRM ; enrichment ratio = ≤ 0.25

For record SAIM the listed enrichment ratio is 11.6

Note to self: enrichment ratio recorded for FQYK was ≤ 0.25

Measured enrichment ratio, SECQ : 11.4

The variant identified as AMPS registered its enrichment ratio at ≤ 0.25

SAQV has a reported enrichment ratio of 0.569

Input LDQS . Output enrichment ratio: ≤ 0.25

Reported enrichment ratio for SAFA was ≤ 0.25

Noted for SENE : its enrichment ratio reads ≤ 0.25

So, MEIM ? Its enrichment ratio was 48.5

Entry under test: SIWV . Its enrichment ratio was ≤ 0.25
